- System: MALME-3M melanoma
- Assay method text: NCI tumour cell line growth inhibition, 48 h; in the data active = GI50 below about 0.43 µM; inactive = the rest
Please state which outcome applies, choosing from T (active), F (inactive)

Incoming: How did this test come out for O=C(CN1CCN(CCCOc2c(-c3ccccc3)oc3ccccc3c2=O)CC1)Nc1ccc(Cl)cc1C(=O)c1ccccc1Cl ?
Outgoing: F

* * *

- Tested on: HCC-2998 colon
- Assay method text: NCI tumour cell line growth inhibition, 48 h; in the data active means GI50 below about 0.43 µM; inactive means the rest
Please state which outcome applies, choosing from 1 (yes) = active, 0 (no) = inactive

Previously resolved entries follow.
> print(dat)
                                   compound  label.class
1      Nc1c(Br)cc(Br)c2c1[nH]c(=O)c1ccccc12       0 (no)
2  COC(=O)c1c2c(c(C)[n+]([O-])c1C)C(=O)C=C(NCc1ccc(F)c(Cl)c1)C2=O      1 (yes)
3  COC(=O)C1=C(C(=O)ON)C2C=CC1(C(Cc1ccccc1)Nc1ccccc1)O2 (stereo not given)       0 (no)
4   O=c1ccc2nc(-c3ccccc3)nn(-c3ccccn3)c-2c1       0 (no)

# input for lookup
Incoming: How did this test come out for CCC/C(=N/N=C(N)N)c1ccc(NC(=O)c2cc3cc(OC)ccc3[nH]2)cc1 ?
Outgoing: 0 (no)
